Measured variant/wild-type by item
Target: T1, mouse tissue factor pathway inhibitor (TFPI) (mouse, UniProt O54819 29-289, limits assumed)
T1 construct: bought; also called mTFPI; murine TFPI
T1 sequence (looked up): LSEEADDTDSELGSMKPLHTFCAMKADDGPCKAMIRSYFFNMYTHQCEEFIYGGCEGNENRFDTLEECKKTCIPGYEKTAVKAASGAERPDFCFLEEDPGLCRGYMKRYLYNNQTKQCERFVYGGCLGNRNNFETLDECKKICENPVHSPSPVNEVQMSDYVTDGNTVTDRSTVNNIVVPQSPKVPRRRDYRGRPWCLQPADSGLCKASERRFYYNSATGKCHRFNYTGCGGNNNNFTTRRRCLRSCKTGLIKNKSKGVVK
Assay: equilibrium ELISA
Dear colleague, please return just the value in ratio, with no unit written.

binder	variant/wild-type, ratio
4B7 HC_H107M LC_F31I (Fab, V domains shown) VH: QVQLQQSGPGLVKPSQTLSLTCAISGDSVSSNSAAWSWIRQSPGRGLEWLGIIYKRSKWYNDYAVSVKSRITINPDTSKNQFSLQLNSVTPEDTAVYYCARWHSDKMWGFDYWGQGTLVTVSS VL: DIVMTQSPLSLPVTPGEPASISCRSSQSLVISDGNTYLNWYLQKPGQSPQLLIYKGSNRASGVPDRFSGSGSGTDFTLKISRVEAEDVGVYYCQQYDSYPLTFGQGTKVEIKR	9.2

Lab note: next binder to report on.
Entry 4B7 LC_D97T (Fab, V domains shown) VH: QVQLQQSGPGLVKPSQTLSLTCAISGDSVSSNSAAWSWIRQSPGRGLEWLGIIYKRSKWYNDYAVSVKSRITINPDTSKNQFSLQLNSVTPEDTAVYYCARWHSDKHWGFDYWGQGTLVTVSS VL: DIVMTQSPLSLPVTPGEPASISCRSSQSLVFSDGNTYLNWYLQKPGQSPQLLIYKGSNRASGVPDRFSGSGSGTDFTLKISRVEAEDVGVYYCQQYTSYPLTFGQGTKVEIKR : reported variant/wild-type = ?
5.5
